Tested on: CHO-AA8
Experiment: Compound concentration required to reduce cell survival to 10% of control values under hypoxic condition
Type: cell-based, Cricetulus griseus
Settings: chinese hamster
Assign CT10 to each entry below.
Please give a number only; it is taken to be in mM-hr.

Query (compound): Cc1ncc([N+](=O)[O-])n1CCNC(=O)CCCn1ccnc1[N+](=O)[O-] ; field requested: CT10
0.37

Entry under review: O=C(CCCn1ccnc1[N+](=O)[O-])NCCn1ccnc1[N+](=O)[O-] . Reported CT10?
3.4

I'd like to know its CT10. The compound in question is Cc1ncc([N+](=O)[O-])n1CCNC(=O)CCCCn1ccnc1[N+](=O)[O-]
6

Look up CT10: O=C(CCCn1ccnc1[N+](=O)[O-])NCCn1cncc1[N+](=O)[O-]
0.8

What value of CT10 has been recorded for this entry: Cc1ncc([N+](=O)[O-])n1CCO
100

Please give the measured CT10 for this compound: O=[N+]([O-])c1nccn1CC(O)CNCCBr (stereo not given)
0.18

Given the entry O=C(CCn1ccnc1[N+](=O)[O-])NCCCn1ccnc1[N+](=O)[O-] , report its measured CT10.
2.5

Consider the compound Cc1ncc([N+](=O)[O-])n1CCNC(=O)Cn1ccnc1[N+](=O)[O-] and give its measured CT10.
11

Which value of CT10 has been reported for Cc1ncc([N+](=O)[O-])n1CCNC(=O)CCn1ccnc1[N+](=O)[O-] in the records?
12

Values from ChEMBL document CHEMBL1127318
